- Test system: leukemia L-1210
- assay: Antitumour activity in mice inoculated intraperitoneally with leukemia L-1210 (survival, T/C)
- Type: in vivo, CDF-1 male mice
- measurement-conditions: Mus musculus, L1210, ip; 100 mg/kg i.p., directly after injection of L-1210, after 2 days and after 6 days
parameter-measured: response vs control in vivo at 100 mg/kg (%)
Provide only the numeric value, understood in %.

Ask | Field request: response vs control in vivo at 100 mg/kg | item: CCCCCCCC/C=C\CCCCCCCC(=O)Nc1ccn([C@@H]2O[C@H](COP(=O)(O)O)[C@@H](O)[C@@H]2O)c(=O)n1 [N^4 -Oleoyl-5'-PNa]
Reply | 270

Ask | Field request: response vs control in vivo at 100 mg/kg | item: CCCCCCCCCCCCCCCCCCCC(=O)Nc1ccn([C@@H]2O[C@H](COP(=O)(O)O)[C@@H](O)[C@@H]2O)c(=O)n1 [N^4 -Arachidoyl-5'-PNa]
Reply | 320

Ask | Field request: response vs control in vivo at 100 mg/kg | item: Nc1ccn([C@@H]2O[C@H](COP(=O)(O)O)[C@@H](O)[C@@H]2O)c(=O)n1 [Ara-C-5'-p.circle.]
Reply | 119

Ask | Field request: response vs control in vivo at 100 mg/kg | item: CCCCCC(=O)Nc1ccn([C@@H]2O[C@H](COP(=O)(O)O)[C@@H](O)[C@@H]2O)c(=O)n1 [N^4 -Caproyl-5'-PNa]
Reply | 103

Ask | Field request: response vs control in vivo at 100 mg/kg | item: CCCCC/C=C\C/C=C\CCCCCCCC(=O)Nc1ccn([C@@H]2O[C@H](CO)[C@@H](O)[C@@H]2O)c(=O)n1 [N^4 -Linoleoyl-Ara-C]
Reply | 268

Ask | Field request: response vs control in vivo at 100 mg/kg | item: CCCCC(=O)Nc1ccn([C@@H]2O[C@H](CO)[C@@H](O)[C@@H]2O)c(=O)n1 [N^4 -Valeryl-Ara-C]
Reply | 133

Ask | Field request: response vs control in vivo at 100 mg/kg | item: Nc1ccn([C@@H]2O[C@H](CO)[C@@H](O)[C@@H]2O)c(=O)n1 [Ara-C, 1-β-D-arabinofuranosylcytosine]
Reply | 127

Ask | Field request: response vs control in vivo at 100 mg/kg | item: CC(=O)Nc1ccn([C@@H]2O[C@H](COP(=O)(O)O)[C@@H](O)[C@@H]2O)c(=O)n1 [N^4 -Acetyl-5'-PNa]
Reply | 101

Ask | Field request: response vs control in vivo at 100 mg/kg | item: CCCCCCCC(=O)Nc1ccn([C@@H]2O[C@H](CO)[C@@H](O)[C@@H]2O)c(=O)n1 [N^4 -Caprylyl-Ara-C]
Reply | 123

Ask | Field request: response vs control in vivo at 100 mg/kg | item: CCCCCCCCCCCCCCCCCCCCCC(=O)Nc1ccn([C@@H]2O[C@H](COP(=O)(O)O)[C@@H](O)[C@@H]2O)c(=O)n1 [N^4 -Behenoyl-5'-PNa]
Reply | 316

Ask | Field request: response vs control in vivo at 100 mg/kg | item: CCCC(=O)Nc1ccn([C@@H]2O[C@H](CO)[C@@H](O)[C@@H]2O)c(=O)n1 [N^4 -Butyryl-Ara-C]
Reply | 131

Ask | Field request: response vs control in vivo at 100 mg/kg | item: CCCCCCCCCCCCCCCCCC(=O)Nc1ccn([C@@H]2O[C@H](CO)[C@@H](OP(=O)(O)O)[C@@H]2O)c(=O)n1 [N^4-stearoyl-Ara-C-3'-PNa]
Reply | 286

Ask | Field request: response vs control in vivo at 100 mg/kg | item: CCCCCCCCCCCC(=O)Nc1ccn([C@@H]2O[C@H](COP(=O)(O)O)[C@@H](O)[C@@H]2O)c(=O)n1 [N^4 -Lauroyl-5'-PNa]
Reply | 110

Ask | Field request: response vs control in vivo at 100 mg/kg | item: CCCCCCCC/C=C\CCCCCCCC(=O)Nc1ccn([C@@H]2O[C@H](CO)[C@@H](O)[C@@H]2O)c(=O)n1 [N^4 -Oleoyl-Ara-C]
Reply | 261

Ask | Field request: response vs control in vivo at 100 mg/kg | item: CCCCC/C=C\C/C=C\C/C=C\C/C=C\CCCC(=O)Nc1ccn([C@@H]2O[C@H](CO)[C@@H](O)[C@@H]2O)c(=O)n1 [N^4 -Arachidonoyl-Ara-C]
Reply | 269
